- Tested on: UACC-257 melanoma
- measurement.protocol: NCI-60 one-dose screen, 48 h
- test.parameters: 10 µM unless noted
About 83,000 compounds went through this panel and 20% of them were active in at least one assay; those are over-represented in the sample as a whole. The source made the active and inactive calls. Rule for the calls: active = growth percent below 10; inactive = the rest.
Mark one answer only. Choices: active, inactive

>>> discrete_label("N#CCNc1ccccc1N")
"inactive"
>>> discrete_label("COc1cc2c(cc1OC)C1CCN3C(=O)CCC3N1CC2 (stereo unspecified)")
"inactive"

Okay, now this compound:
Prompt: State the result this test recorded for OC(CCC(O)(c1ccccc1)c1ccccc1)(c1ccccc1)c1ccccc1 .
Completion: inactive

###

- Test system: IGROV1 ovarian
- measurement.protocol: NCI-60 one-dose screen, 48 h
- test.parameters: 10 µM unless noted
This is part of a sample that, as a whole, favours compounds with a hit. Of some 83,000 tested, about 20% had one in any assay. The source made the active and inactive calls. Rule for the calls: active = growth percent below 10; inactive = the rest.
Mark one answer only. Choices: t for active, f for inactive

Solved cases below.
>>> discrete_label("CCCCCCCCCCSc1ncnc2nc[nH]c12")
"f"
>>> discrete_label("COc1cc2c(c(OC)c1OC)-c1ccc(NN(C(=O)c3ccccc3)C(=O)c3ccccc3)c(=O)cc1[C@@H](NC(C)=O)CC2 (tested in a mixture with another compound)")
"f"
>>> discrete_label("COc1cc2c(cc1OC)C1CCN3C(=O)CCC3N1CC2 (stereo not drawn)")
"f"
>>> discrete_label("COC(=O)C[C@@H]1CC=CC(=O)/C1=C(O)/C=C/c1ccccc1")
"t"
>>> discrete_label("Cc1cc(C(C)(C)C)cc(C)c1CC1=NCCN1")
"f"

Prompt: State the result this test recorded for COc1ccc(-c2oc3cc(O)c(OC)c(O)c3c(=O)c2OC)cc1O .
Completion: f

Prompt: State the result this test recorded for CCCCCCCC/C=C/CCCCCCCC1=NC(C)(C)CN1CCO .
Completion: t

Prompt: State the result this test recorded for CCCc1nn(C)c2c(=O)[nH]c(-c3cc(S(=O)(=O)N4CCN(C)CC4)ccc3OCC)nc12 .
Completion: f

###

- System: CCRF-CEM leukemia
- measurement.protocol: NCI-60 one-dose screen, 48 h
- test.parameters: 10 µM unless noted
The panel holds about 83,000 compounds, 20% with a hit somewhere; the sample as a whole holds those more often. The source made the active and inactive calls. The calls were made as follows: active = growth percent below 10; inactive = the rest.
Mark one answer only. Choices: label 1 for active, label 0 for inactive

Solved cases below.
>>> discrete_label("CC(NC(=O)C(C)Oc1ccc(Cl)cc1Cl)C(=O)O (stereo unspecified)")
"label 1"
>>> discrete_label("COc1cc([C@@H]2c3cc4c(cc3C(O[C@@H]3O[C@@H]5CO[C@@H](c6cccs6)OC5[C@H](O)[C@H]3O)C3COC(=O)[C@@H]32)OCO4)cc(OC)c1O (stereo partly specified)")
"label 1"
>>> discrete_label("[O-]/[N+](=C\\C=C\\c1ccccc1)c1ccccc1")
"label 0"
>>> discrete_label("C[C@]12CC[C@@H]3c4ccc(O)c([N+](=O)[O-])c4CC[C@H]3[C@@H]1CC[C@@H]2NS(=O)(=O)c1ccc(C(F)(F)F)cc1")
"label 0"
>>> discrete_label("O=[N+]([O-])c1ccc2c(c1)S(=O)c1cc([N+](=O)[O-])ccc1N2")
"label 0"
>>> discrete_label("O=C(Nc1ncc([N+](=O)[O-])s1)c1cccc([N+](=O)[O-])c1")
"label 0"
>>> discrete_label("O=C1c2ccccc2-c2c1nc1ccccc1[n+]2[O-]")
"label 0"
>>> discrete_label("COc1cccc(C2C(C#N)=C(N)Oc3cc(OC)ccc32)c1 (stereo unspecified)")
"label 1"
>>> discrete_label("COc1ccc(COC(C)=O)cc1")
"label 0"
>>> discrete_label("Cc1cc(C)c2c(c1)N1OC(C2)C[C@H]1/C=C/c1ccccc1 (stereo partly specified)")
"label 0"

Prompt: State the result this test recorded for CC(C)[C@]12O[C@H]1[C@@H]1O[C@]13[C@]1(O[C@H]1C[C@H]1C4=C(CC[C@@]13C)C(=O)OC4)[C@@H]2OC(=O)CN(C)C .
Completion: label 0

Prompt: State the result this test recorded for O=c1cc(-c2cccnc2)oc2c1ccc1ccccc12 .
Completion: label 0

Prompt: State the result this test recorded for c1ccc(-n2nnnc2-c2cccc3ccccc23)cc1 .
Completion: label 1

Prompt: State the result this test recorded for CC1=CSC2=NCCN12 .
Completion: label 0

Prompt: State the result this test recorded for Cc1cc2cn3c4cccnc4[nH]c(=O)c3c2cc1C .
Completion: label 1

Prompt: State the result this test recorded for CC(C)C(=O)Cc1cnccn1 .
Completion: label 0

Prompt: State the result this test recorded for CCCCCCCCCCCCNc1ncnc2[nH]ncc12 .
Completion: label 0

Prompt: State the result this test recorded for O=C(OC[C@H]1O[C@H](OC(=O)c2cc(O)c(O)c(OC(=O)c3cc(O)c(O)c(O)c3)c2)[C@H](OC(=O)c2cc(O)c(O)c(OC(=O)c3cc(O)c(O)c(O)c3)c2)[C@@H](OC(=O)c2cc(O)c(O)c(OC(=O)c3cc(O)c(O)c(O)c3)c2)[C@@H]1OC(=O)c1cc(O)c(O)c(OC(=O)c2cc(O)c(O)c(O)c2)c1)c1cc(O)c(O)c(OC(=O)c2cc(O)c(O)c(O)c2)c1 .
Completion: label 0

Prompt: State the result this test recorded for Clc1ccc(-c2nc(-c3cccs3)no2)c(Cl)c1 .
Completion: label 0

Prompt: State the result this test recorded for COC(=O)c1ccc2c(c1)nc(-c1ccc(O)c(OC)c1)n2-c1cc(C(C)(C)C)[nH]n1 .
Completion: label 0

Prompt: State the result this test recorded for CC1(C)OC(=O)C(=Cc2ccccc2Br)C(=O)O1 .
Completion: label 0

Prompt: State the result this test recorded for O=C(Nc1cccc2ccccc12)c1cc2c(cc1Br)OCO2 .
Completion: label 0

Prompt: State the result this test recorded for O=C(NN(C(=O)c1ccccc1)c1cccs1)c1ccccc1 .
Completion: label 0

Prompt: State the result this test recorded for C[n+]1ccc(Nc2ccc(NC(=O)c3ccc(Nc4cc[n+](C)c5ccc(N)cc45)cc3)cc2)cc1 .
Completion: label 0

Prompt: State the result this test recorded for CCCc1cccc(CCC)c1O .
Completion: label 0

Prompt: State the result this test recorded for CC(C)COCC(CN(Cc1ccccc1)c1ccccc1)N1CCCC1 (stereo unspecified) .
Completion: label 0

Prompt: State the result this test recorded for COc1cc(-c2cc(C(=O)Nc3nc4ccccc4s3)nc3cc(-c4ccccc4)nn23)cc(OC)c1OC .
Completion: label 0

###

- System: COLO 205 colon
- measurement.protocol: NCI-60 one-dose screen, 48 h (100 = growth as untreated, 0 = no growth, -100 = all killed)
- test.parameters: 10 µM unless noted
About 83,000 compounds went through this panel and 20% of them were active in at least one assay; those are over-represented in the sample as a whole.
Cut-off 80% on growth, inclusive. At or above means label 1; below means label 0.

Solved cases below.
>>> discrete_label("CC(C)C/C(=N\\NC(=O)c1ccncc1)c1cc(Cl)ccc1O")
"label 0"
>>> discrete_label("COc1cccc(-c2nnc(N)o2)c1")
"label 1"
>>> discrete_label("CN(C(=O)c1ccccc1)N(C)C(=O)c1ccccc1")
"label 1"
>>> discrete_label("Fc1ccc(-c2nnc(-c3c(-c4ccc(F)cc4)nc4ncccn34)o2)cc1")
"label 1"
>>> discrete_label("O=C(/C=C/c1ccccc1Cl)c1ccc(O)cc1")
"label 1"
>>> discrete_label("CCCCN(CCCC)CCCOC(=O)c1ccc(N)cc1")
"label 0"
>>> discrete_label("O=C1C(=O)c2ccc(Br)cc2-c2cc(Br)ccc21")
"label 1"
>>> discrete_label("COc1ccc(-c2noc(N)c2-c2cc(OC)c3c(c2)OCO3)cc1")
"label 0"
>>> discrete_label("O=C(c1ccccc1)c1ccco1")
"label 1"
>>> discrete_label("O=C(Nc1ccc(OCc2nnc(-c3ccccc3)o2)c(F)c1)Nc1ccc(Cl)c(C(F)(F)F)c1")
"label 0"

Prompt: Check this molecule for growth at or above 80%: COc1ccc(C2CC(c3ccc(OC)c(OC)c3)=NN2C(=O)c2cc(OC)c(OC)c(OC)c2)c(OC)c1 (stereo not given)
Completion: label 0

Prompt: Check this molecule for growth at or above 80%: COc1ccc2c(c1)/C(=C\c1c[nH]c3ccc(F)cc13)C(=O)N2
Completion: label 1

Prompt: Check this molecule for growth at or above 80%: C=C1CC[C@@H]2[C@](C)(COC(C)=O)[C@H](OC(C)=O)CC[C@@]2(C)[C@@H]1CC(Nc1ccc(S(=O)(=O)Nc2cc(C)on2)cc1)C1=CCOC1=O (stereo not given in full)
Completion: label 0

Prompt: Check this molecule for growth at or above 80%: COC(=O)CCC1=C(C)C(C)=N/C1=C\c1[nH]c(-c2ccc[nH]2)cc1OC
Completion: label 0

Prompt: Check this molecule for growth at or above 80%: Clc1ccc2c(Nc3ccc4oc(NCCN5CCCC5)nc4c3)ccnc2c1
Completion: label 1

Prompt: Check this molecule for growth at or above 80%: COC(=O)[C@]1(CCSC)N[C@H](c2cn(-c3ccccc3)nc2C)[C@@H]2C(=O)N(c3ccc(C)cc3)C(=O)[C@@H]21
Completion: label 1

The measured values listed here are drawn from PubChem BioAssay (NCI).
